measured.on: Env of MuLV
test.method.notes: cell-based or functional assay
readout.label: neutralization IC50

Some solved entries appear below for comparison.
binder: 8ANC3630 (antibody, V domains shown) VH: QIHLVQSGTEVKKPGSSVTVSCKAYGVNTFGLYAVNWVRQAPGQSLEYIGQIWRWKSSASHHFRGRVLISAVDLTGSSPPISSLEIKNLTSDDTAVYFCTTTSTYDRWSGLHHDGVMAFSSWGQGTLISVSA VL: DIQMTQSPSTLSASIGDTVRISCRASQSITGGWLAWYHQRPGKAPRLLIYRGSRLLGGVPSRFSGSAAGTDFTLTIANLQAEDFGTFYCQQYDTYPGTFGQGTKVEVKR
neutralization IC50: > 30 µg/mL

binder: γ20κ11 (antibody, V domains shown) VH: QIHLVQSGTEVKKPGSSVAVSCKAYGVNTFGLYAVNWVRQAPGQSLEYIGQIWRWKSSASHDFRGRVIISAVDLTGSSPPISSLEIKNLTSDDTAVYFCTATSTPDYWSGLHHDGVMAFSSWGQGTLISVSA VL: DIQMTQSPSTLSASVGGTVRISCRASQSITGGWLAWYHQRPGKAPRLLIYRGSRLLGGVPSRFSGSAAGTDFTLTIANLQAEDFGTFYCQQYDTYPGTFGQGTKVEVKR
neutralization IC50: > 30 µg/mL

binder: γ59κ18 (antibody, V domains shown) VH: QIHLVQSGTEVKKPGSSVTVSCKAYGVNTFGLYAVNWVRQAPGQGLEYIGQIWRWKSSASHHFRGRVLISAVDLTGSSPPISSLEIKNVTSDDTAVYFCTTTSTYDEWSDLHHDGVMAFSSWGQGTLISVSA VL: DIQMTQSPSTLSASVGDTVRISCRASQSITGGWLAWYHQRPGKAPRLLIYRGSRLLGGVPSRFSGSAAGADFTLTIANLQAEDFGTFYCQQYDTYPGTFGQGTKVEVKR
neutralization IC50: > 15 µg/mL

Read the next record carefully.
Consider the binder γ8κ3 (antibody, V domains shown) VH: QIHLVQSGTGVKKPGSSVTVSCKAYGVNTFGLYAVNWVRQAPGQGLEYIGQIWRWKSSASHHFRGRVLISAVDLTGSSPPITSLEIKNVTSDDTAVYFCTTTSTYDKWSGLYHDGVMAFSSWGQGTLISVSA VL: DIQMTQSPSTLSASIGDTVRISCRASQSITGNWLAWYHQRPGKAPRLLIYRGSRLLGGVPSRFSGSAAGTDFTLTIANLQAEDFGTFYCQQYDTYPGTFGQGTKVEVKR and give its measured neutralization IC50. > 18 µg/mL
